B1: bZIP63 (protoplast two-hybrid fusion) [Arabidopsis thaliana] / bZIP11 (protoplast two-hybrid fusion) [Arabidopsis thaliana] (parent)
chain 1: MEKVFSDEEISGNHHWSVNGMTSLNRSASEWAFNRFIQESSAAADDGESTTACGVSVSSPPNVPVDSEEYRAFLKSKLNLACAAVAMKRGTFIKPQDTSGRSDNGGANESEQASLASSKATPMMSSAITSGSELSGDEEEADGETNMNPTNVKRVKRMLSNRESARRSRRRKQAHLSELETQVSQLRVENSKLMKGLTDVTQTFNDASVENRVLKANIETLRAKVKMAEETVKRLTGFNPMFHNMPQIVSTVSLPSETSNSPDTTSSQVTTPEIISSGNKGKALIGCKMNRTASMRRVESLEHLQKRIRSVGDQ
chain 2: MESSSSGTTSSTIQTSSGSEESLMEQRKRKRMLSNRESARRSRMKKQKLLDDLTAQVNHLKKENTEIVTSVSITTQHYLTVEAENSVLRAQLDELNHRLQSLNDIIEFLDSSNNNNNNNMGMCSNPLVGLECDDFFVNQMNMSYIMNQPLMASSDALMY

Variants of: B1
Experiment: protoplast two-hybrid (P2H) assay
Details: - AKIN10 (no co-transformation), parent: 8, read off a plot
// label = Satisfied if response (% of signal with wt bZIP63 and AKIN10) is not less than 10, otherwise Not satisfied

INSERT INTO results (mutation_spec, label_class) VALUES
  ('chain 1 S300A', 'Satisfied'),
  ('chain 1 S29A S294A S300A', 'Not satisfied'),
  ('chain 1 S29A', 'Satisfied'),
  ('chain 1 S294A', 'Not satisfied');
